B1: SPSB4 (parent)
chain: LDMDEGTLSFIVDGQYLGVAFRGL

Variants of: B1
ASSAY_DETAILS: protein stability index of a GFP-peptide fusion (GPS, HEK-293T) (PSI 1-6); higher = more stable;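 further: lentivirally expressed fusions sorted by FACS into six bins by GFP to DsRed ratio, PSI derived from sequencing read proportions per bin multiplied by bin number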
EXPERIMENTAL_SETUP: c terminus: a fixed tail appended
MEASURED_ENDPOINT: protein stability index
Lab note: record the figure alone, no unit after it.

Below are worked cases with known answers.
>>> df
   mutation_annotation  value_measured
0                  E5W            3.01
1                 F21D            2.31
2                  L1C            3.04
3                  D4A            1.71
4                 G18Q            1.42
5                 R22P            2.25

Q: Returns the measured protein stability index for the input variant. Input: Q15E
Result: 1.39

Q: Endpoint output: protein stability index of S9K . Value?
Result: 1.99

Q: Quick one: protein stability index of L24A ?
Result: 1.22

Q: For the variant shown here, D2I , give the reported protein stability index.
Result: 2.56

Q: Report protein stability index for V12M please.
Result: 2.67
